A short record of pIC50 observed with Caspase-7 (Homo sapiens) follows.
Sequence (P55210 24-198 limits assumed): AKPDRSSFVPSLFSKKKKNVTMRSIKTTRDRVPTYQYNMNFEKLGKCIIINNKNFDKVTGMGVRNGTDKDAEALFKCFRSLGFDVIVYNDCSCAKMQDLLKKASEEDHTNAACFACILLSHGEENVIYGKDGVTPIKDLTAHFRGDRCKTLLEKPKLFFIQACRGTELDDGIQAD
Sequence (P55210 207-303 limits assumed): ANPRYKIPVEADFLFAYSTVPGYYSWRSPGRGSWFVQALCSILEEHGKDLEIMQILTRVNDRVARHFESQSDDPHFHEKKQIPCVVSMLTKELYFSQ
pIC50: −log10 of the molar value.

- compound: "O=C(Oc1ccc(Cl)cc1)c1csc(C2COc3ccccc3O2)n1 (stereo not drawn)"
  test.target: "Caspase-7 (Homo sapiens)"
  result: "< 3.70"

Task: Form: Entry = O=C(O)c1csc(C2COc3ccccc3O2)n1 (stereo not drawn) | System = Caspase-7 (Homo sapiens) | pIC50 = ____
Result: 3.77

Task: Lab note: need pIC50 with Caspase-7 (Homo sapiens) for entry CCOC(=O)c1sc(C2COc3ccccc3O2)nc1C (stereo not drawn) , please look it up.
Result: < 3.70

###

Target: Caspase-3 (Homo sapiens, UniProt P42574)
Sequence (P42574 whole entry): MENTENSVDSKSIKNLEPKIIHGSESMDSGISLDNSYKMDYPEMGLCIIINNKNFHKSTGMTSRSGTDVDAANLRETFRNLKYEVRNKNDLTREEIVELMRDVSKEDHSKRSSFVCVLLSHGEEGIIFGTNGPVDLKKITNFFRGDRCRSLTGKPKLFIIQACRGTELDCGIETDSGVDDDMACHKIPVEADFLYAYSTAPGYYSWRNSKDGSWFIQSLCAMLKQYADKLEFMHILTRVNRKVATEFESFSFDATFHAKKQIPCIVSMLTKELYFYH
metric: IC50 (µM)

- molecule: "O=C(NCc1ccco1)c1csc(C2COc3ccccc3O2)n1 (stereo not given)"
  test.target: "Caspase-3 (Homo sapiens, UniProt P42574)"
  IC50 (µM): 133
- molecule: "CN(C)C(=O)c1csc(C2COc3ccccc3O2)n1 (stereo not given)"
  test.target: "Caspase-3 (Homo sapiens, UniProt P42574)"
  IC50 (µM): 129
- molecule: "O=C(c1csc(C2COc3ccccc3O2)n1)N1CCOCC1 (stereo not given)"
  test.target: "Caspase-3 (Homo sapiens, UniProt P42574)"
  IC50 (µM): 150

###

Target: Caspase-8 (Homo sapiens, UniProt Q14790)
Sequence (Q14790 217-374 limits assumed): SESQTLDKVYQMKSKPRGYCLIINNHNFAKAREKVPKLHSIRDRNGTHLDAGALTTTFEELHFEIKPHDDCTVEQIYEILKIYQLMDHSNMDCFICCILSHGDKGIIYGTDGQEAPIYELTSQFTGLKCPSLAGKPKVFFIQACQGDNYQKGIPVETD
Sequence (Q14790 385-479 limits assumed): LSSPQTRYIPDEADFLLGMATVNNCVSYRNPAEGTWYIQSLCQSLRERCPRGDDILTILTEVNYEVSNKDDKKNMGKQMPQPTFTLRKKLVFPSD
pIC50: −log10 of the molar value.
metric: pIC50

- compound: "O=C(Oc1ccccc1)c1csc(C2COc3ccccc3O2)n1 (stereo not given)"
  pIC50: 4.22
- compound: "O=C(Sc1cccs1)c1csc(C2COc3ccccc3O2)n1 (stereo not given)"
  pIC50: 4.21
- compound: "O=C(O)c1csc(C2COc3ccccc3O2)n1 (stereo not given)"
  pIC50: 4.12
- compound: "O=C(NCc1ccco1)c1csc(C2COc3ccccc3O2)n1 (stereo not given)"
  pIC50: 4.22
